- Assayed System: 2091A (XynA inserted in XBP at position 209)
- Construct: single polypeptide: XBP to A209, linker AG, XynA (1-185), linker GGA, XBP from residue 210; pET28a, E. coli Rosetta (DE3), Ni-NTA (His tag not described); with Endo-1,4-beta-xylanase A
- Test: intrinsic tryptophan fluorescence titration
- Measurement Conditions: 20 mM Hepes pH 7.5, 25 °C; 3 µM protein; XBP domain site, allosteric activator of xylanase
Attribute Measured: Kd (nM)
Give bare numbers, in nM.

Look up Kd with 2091A (XynA inserted in XBP at position 209) for this molecule: OC1OC[C@@H](O)[C@H](O)[C@H]1O (stereo partly shown) 150
